molecular target: human NaV subtype, like NaV 1.7 (Homo sapiens, UniProt Q15858); test: E-VIPR optical membrane potential assay with electrical stimulation; type: cell-based; conditions: active against one or more sodium channels; assay and NaV subtype not specified for Table 3; read-out: IC50 Binned Activity Data
Sequence (Q15858 whole entry): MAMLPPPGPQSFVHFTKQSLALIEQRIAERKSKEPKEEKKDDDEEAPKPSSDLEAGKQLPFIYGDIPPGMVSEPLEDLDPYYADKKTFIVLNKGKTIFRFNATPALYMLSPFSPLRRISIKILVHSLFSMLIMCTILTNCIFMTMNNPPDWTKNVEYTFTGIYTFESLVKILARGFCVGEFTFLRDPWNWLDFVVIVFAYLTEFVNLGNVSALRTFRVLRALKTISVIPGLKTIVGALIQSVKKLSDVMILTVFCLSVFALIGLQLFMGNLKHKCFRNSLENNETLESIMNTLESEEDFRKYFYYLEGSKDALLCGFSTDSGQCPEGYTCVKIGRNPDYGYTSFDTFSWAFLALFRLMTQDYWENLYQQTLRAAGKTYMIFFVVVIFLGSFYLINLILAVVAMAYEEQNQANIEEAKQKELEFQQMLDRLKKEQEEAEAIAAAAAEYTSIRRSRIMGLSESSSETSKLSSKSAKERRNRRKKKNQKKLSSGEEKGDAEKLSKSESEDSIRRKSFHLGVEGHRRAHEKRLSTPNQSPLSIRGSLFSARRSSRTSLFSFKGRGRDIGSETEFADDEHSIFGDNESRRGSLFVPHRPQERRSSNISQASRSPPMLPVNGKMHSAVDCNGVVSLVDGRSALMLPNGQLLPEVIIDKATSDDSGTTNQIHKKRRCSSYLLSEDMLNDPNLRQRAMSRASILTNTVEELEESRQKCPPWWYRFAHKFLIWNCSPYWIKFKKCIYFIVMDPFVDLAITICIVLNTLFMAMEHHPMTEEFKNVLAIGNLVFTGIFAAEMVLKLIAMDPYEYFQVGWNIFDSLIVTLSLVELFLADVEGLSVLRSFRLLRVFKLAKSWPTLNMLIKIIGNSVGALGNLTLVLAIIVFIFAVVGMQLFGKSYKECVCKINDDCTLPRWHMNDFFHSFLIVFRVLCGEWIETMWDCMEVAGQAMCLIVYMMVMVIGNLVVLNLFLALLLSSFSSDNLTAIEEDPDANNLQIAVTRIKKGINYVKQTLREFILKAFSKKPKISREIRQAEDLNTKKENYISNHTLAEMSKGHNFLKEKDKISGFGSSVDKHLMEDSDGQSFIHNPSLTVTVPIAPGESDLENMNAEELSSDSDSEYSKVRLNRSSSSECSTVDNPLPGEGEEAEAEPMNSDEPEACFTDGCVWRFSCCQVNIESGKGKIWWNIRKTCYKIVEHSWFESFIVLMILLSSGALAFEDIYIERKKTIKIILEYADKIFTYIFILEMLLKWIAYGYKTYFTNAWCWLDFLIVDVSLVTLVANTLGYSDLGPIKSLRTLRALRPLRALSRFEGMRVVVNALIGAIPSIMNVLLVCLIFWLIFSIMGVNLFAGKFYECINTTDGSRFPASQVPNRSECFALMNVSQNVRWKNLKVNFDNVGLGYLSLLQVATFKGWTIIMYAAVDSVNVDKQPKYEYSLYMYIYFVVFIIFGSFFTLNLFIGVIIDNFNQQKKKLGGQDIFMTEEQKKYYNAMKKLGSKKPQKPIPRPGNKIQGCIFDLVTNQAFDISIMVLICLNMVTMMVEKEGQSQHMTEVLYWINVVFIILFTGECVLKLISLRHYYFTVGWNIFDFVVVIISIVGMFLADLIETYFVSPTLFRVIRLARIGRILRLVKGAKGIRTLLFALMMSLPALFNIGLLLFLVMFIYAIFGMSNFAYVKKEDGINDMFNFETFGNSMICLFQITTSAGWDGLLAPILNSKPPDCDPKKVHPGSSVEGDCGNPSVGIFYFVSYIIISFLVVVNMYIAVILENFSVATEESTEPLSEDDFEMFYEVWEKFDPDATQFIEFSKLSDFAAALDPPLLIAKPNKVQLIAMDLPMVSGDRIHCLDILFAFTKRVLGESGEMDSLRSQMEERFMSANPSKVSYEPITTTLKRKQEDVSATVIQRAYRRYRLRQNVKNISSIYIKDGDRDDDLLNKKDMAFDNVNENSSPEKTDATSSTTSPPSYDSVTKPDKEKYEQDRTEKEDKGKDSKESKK
pIC50: −log10 of the molar value.
# pIC50 annotations

| COMPOUND | ASSAY_RESULT |
| --- | --- |
| COCC1CN(C(C)C)CC2(CCN(C(=O)c3ccc(OC(C)C)c(C)c3)CC2)O1 (stereo not shown) [Compound 73] | > 5.70 |
| Cc1cccc(C2CN(CC(F)F)CC3(CCN(C(=O)c4ccc(OC(C)C)c(F)c4)CC3)O2)n1 (stereo not shown) [Compound 195] | > 5.70 |
| CC(C)Oc1ccc(C(=O)N2CCC3(CC2)CN(CC(F)F)CC(c2ccccc2)O3)cc1F (stereo not shown) [Compound 77] | > 5.70 |

Shift focus to the following entry.
Exercise: Requested field: pIC50. Item: CC(C)Oc1ccc(C(=O)N2CCC3(CC2)CN(CC(F)(F)F)CC(c2cc[nH]n2)O3)cc1F (stereo not shown) [Compound 38]
Key: 5.30 to 5.70

###

In this section, each of the molecules is paired with its reported IC50.
biological target: human NaV subtype, like NaV 1.7 (Homo sapiens, UniProt Q15858); test: E-VIPR optical membrane potential assay with electrical stimulation; format: cell-based; settings: active against one or more sodium channels; assay and NaV subtype not specified for Table 3; read-out: IC50 Binned Activity Data

| MOLECULE | IC50 |
| --- | --- |
| Cc1cc(C(=O)N2CCC3(CC2)CN(CC(F)(F)F)CC(Cn2cccn2)O3)ccc1OC(C)C (centres unmarked) [Compound 181] | > 5 µM |
| CC#CCN1CC(CC)OC2(CCN(C(=O)c3ccc(OC(C)C)c(F)c3)CC2)C1 (centres unmarked) [Compound 239] | > 5 µM |
| COc1cc(C(=O)N2CCC3(CC2)CN(CC(F)(F)F)CC(c2ccccc2)O3)cc(F)c1OC(C)C (centres unmarked) [Compound 234] | < 2 µM |
| Cc1cc(C(=O)N2CCC3(CC2)CN(c2ncccn2)CC(COC(C)C)O3)ccc1OC(C)C (centres unmarked) [Compound 114] | < 2 µM |

Exercise: Recorded IC50 of CCN1CC(c2ccccc2)OC2(CCN(C(=O)c3ccc(C(C)(C)O)cc3)CC2)C1 (centres unmarked) [Compound 158] , please.
Key: > 5 µM

Exercise: Query (molecule): CCC1CN(c2ncccn2)CC2(CCN(C(=O)c3ccc(C4(O)CCCC4)c(F)c3)CC2)O1 (centres unmarked) [Compound 271] ; field requested: IC50
Key: < 2 µM

Exercise: Quick check: IC50 of O=C(c1ccc(S(=O)(=O)C2CCOC2)cc1)N1CCC2(CC1)CN(CC(F)F)CC(c1ccc(F)cc1)O2 (centres unmarked) [Compound 96] ?
Key: > 5 µM

Exercise: Which IC50 value is on record for Cc1cc(C(=O)N2CCC3(CC2)CN(CC(F)F)CC(c2ccccc2)O3)ccc1C(C)(C)O (centres unmarked) [Compound 168] ?
Key: < 2 µM

###

target: UniProt Q15858; test: E-VIPR optical membrane potential assay with electrical stimulation; format: cell-based; conditions: active against one or more sodium channels; assay and NaV subtype not specified for Table 3; read-out: IC50 Binned Activity Data
pIC50: −log10 of the molar value.
QUANTITY_NAME: pIC50

Exercise: Item under review: CCN1CC(C)(C)OC2(CCN(C(=O)c3ccc(OC(C)C)c(C)c3)CC2)C1 [Compound 28] . Reported pIC50?
Key: < 5.30

Exercise: # input compound: COCC1CN(Cc2c(F)cccc2F)CC2(CCN(C(=O)c3ccc(OC(C)C)c(C)c3)CC2)O1 (centres unmarked) [Compound 66] ; wanted: its pIC50
Key: > 5.70

Exercise: Fill in: pIC50 of CCN1CC(c2ccccc2)OC2(CCN(C(=O)c3ccc(OC(C)C)c(CO)c3)CC2)C1 (centres unmarked) [Compound 166] is ___
Key: 5.30 to 5.70

Exercise: Fill in: pIC50 of COCC1CN(c2ccncc2)CC2(CCN(C(=O)c3ccc(OC(C)C)c(C)c3)CC2)O1 (centres unmarked) [Compound 31] is ___
Key: < 5.30

Exercise: Can you look up the measured pIC50 of Cc1cc(C(=O)N2CCC3(CC2)CN(CC(F)F)CC(c2ccnn2C)O3)ccc1OC(C)C (centres unmarked) [Compound 11] for me?
Key: > 5.70

Exercise: What does the record list as pIC50 for COCC1CN(C2COC2)CC2(CCN(C(=O)c3ccc(OC(C)C)c(C)c3)CC2)O1 (centres unmarked) [Compound 255] ?
Key: < 5.30

Exercise: Recorded pIC50 of CC(C)Oc1ccc(C(=O)N2CCC3(CC2)CN(CC(F)(F)F)CC(c2ccccc2)O3)c(F)c1 (centres unmarked) [Compound 135] , please.
Key: > 5.70

Exercise: Please look up its pIC50: CC(C)(O)c1ccc(C(=O)N2CCC3(CC2)CN(CC#N)CC(c2ccccc2)O3)cc1 (centres unmarked) [Compound 275]
Key: < 5.30

###

target: human NaV subtype, like NaV 1.7 (Homo sapiens); test: E-VIPR optical membrane potential assay with electrical stimulation; type: cell-based; details: active against one or more sodium channels; assay and NaV subtype not specified for Table 3; read-out: IC50 Binned Activity Data
QUANTITY_NAME: IC50

Solved entries:
| MOLECULE | ASSAY_RESULT |
| --- | --- |
| Cc1cc(C(=O)N2CCC3(CC2)CN(C)CC(c2ccccc2)O3)ccc1OC(C)C (stereo not shown) [Compound 7] | < 2000 nM |
| Cc1cc(C(=O)N2CCC3(CC2)CN(CC(F)F)CC(c2ccccn2)O3)ccc1OC(C)C (stereo not shown) [Compound 33] | < 2000 nM |
| CCC(CC)CN1CC(COC)OC2(CCN(C(=O)c3ccc(OC(C)C)c(C)c3)CC2)C1 (stereo not shown) [Compound 112] | < 2000 nM |
| COc1ccc(C(=O)N2CCC3(CC2)CN(CCC(C)C)C(=O)C(c2ccccc2)O3)cc1C(F)(F)F (stereo not shown) [Compound 186] | < 2000 nM |
| CC#CCN1CC(CC)OC2(CCN(C(=O)c3ccc(OCC)c(C)c3)CC2)C1 (stereo not shown) [Compound 242] | 2000 to 5000 nM |
| CCN1CC(c2ccccc2)OC2(CCN(C(=O)c3ccc(OC(C)C)c(OC)c3)CC2)C1 (stereo not shown) [Compound 192] | < 2000 nM |
| CCC1CN(c2ncccn2)CC2(CCN(C(=O)c3ccc(C4(O)CCC4)c(C)c3)CC2)O1 (stereo not shown) [Compound 91] | < 2000 nM |
| COCCCN1CC(COC)OC2(CCN(C(=O)c3ccc(OC(C)C)c(C)c3)CC2)C1 (stereo not shown) [Compound 175] | < 2000 nM |

Exercise: Entry CCN1CC(c2ccccc2)OC2(CCN(C(=O)c3ccc(S(=O)(=O)NC4CC4)cc3)CC2)C1 (stereo not shown) [Compound 167] , system human NaV subtype, like NaV 1.7 (Homo sapiens): what IC50 was measured?
Key: > 5000 nM

Exercise: Recall the recorded IC50 for COCC1CN(c2ccccc2)CC2(CCN(C(=O)c3ccc(OC(C)C)c(C)c3)CC2)O1 (stereo not shown) [Compound 286] with human NaV subtype, like NaV 1.7 (Homo sapiens) and state it.
Key: < 2000 nM

Exercise: Hello, I am looking for reported IC50 with human NaV subtype, like NaV 1.7 (Homo sapiens) for Cc1cc(C(=O)N2CCC3(CC2)CN(CC(F)(F)F)CC(c2ccccc2)O3)ccc1OCCO (stereo not shown) [Compound 199] . Could you help?
Key: 2000 to 5000 nM

Exercise: IC50 of CC(C)Oc1ccc(C(=O)N2CCC3(CC2)CN(CC(F)F)CC(c2ccccc2Cl)O3)cc1F (stereo not shown) [Compound 190] on human NaV subtype, like NaV 1.7 (Homo sapiens)?
Key: < 2000 nM

Exercise: IC50 of COCC1CN(C2CCC2)CC2(CCN(C(=O)c3ccc(OC(C)C)c(C)c3)CC2)O1 (stereo not shown) [Compound 285] on human NaV subtype, like NaV 1.7 (Homo sapiens)?
Key: < 2000 nM

Exercise: Recall the recorded IC50 for COc1cc(C(=O)N2CCC3(CC2)CN(CC(F)F)CC(c2ccc(F)cc2)O3)ccc1OC(C)(C)C (stereo not shown) [Compound 247] with human NaV subtype, like NaV 1.7 (Homo sapiens) and state it.
Key: 2000 to 5000 nM

Exercise: Quick check: IC50 on human NaV subtype, like NaV 1.7 (Homo sapiens), item Cc1cc(C(=O)N2CCC3(CC2)CN(CC(F)(F)F)CC(C(C)(C)O)O3)ccc1OC(C)C (stereo not shown) [Compound 127] ?
Key: 2000 to 5000 nM

Exercise: API: value(readout= IC50, system= human NaV subtype, like NaV 1.7 (Homo sapiens), query= CC(C)Oc1ccc(C(=O)N2CCC3(CC2)CN(CC(F)(F)F)CC(c2ccccc2)O3)cc1Cl (stereo not shown) [Compound 213] )
Key: < 2000 nM
